All figures here come from patent US6933321B2.

// reported IC50 for each item listed
Test system: Shionogi mouse mammary carcinoma cells
Experiment: Antiandrogenic activity on DHT-stimulated Shionogi mouse mammary carcinoma cell number
Type: cell-based
Settings: Mus musculus, read-out: Antiandrogenic activity IC50 (nM)
Kindly provide the numeric value in nM only, without the unit symbol.

Field: example entries. Status: answers known.
COc1ccc(-c2ccc(C#N)c(C(F)(F)F)c2)cc1; 49.5
COc1ccc(-c2ccc(C#N)c(C(F)(F)F)c2)cc1F; 84
N#Cc1ccc(-c2c(F)cccc2F)cc1Cl; 12.8
C[C@@](O)(c1cccc(-c2ccc(C#N)c(C(F)(F)F)c2)c1)C(F)(F)F; 54
N#Cc1ccccc1-c1ccc(C#N)c(C(F)(F)F)c1; 33
Cc1cc(C#N)c(Cl)cc1-c1ccc(F)cc1F; 97

Here is another compound to look at.
Tell me measured IC50 for "Cc1cc(C#N)ccc1-c1ccc(C#N)c(C(F)(F)F)c1" please.
78
